molecular target: T1, monomeric soluble human BTLA extracellular domain (BTLA K31-R151) (human, UniProt Q7Z6A9 31-151); test: SPR 37C, mAb captured, BTLA ECD analyte;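 also: Anti-BTLA mouse antibodies captured on a sensor chip via polyclonal anti-mouse IgG, isotype control antibody in reference channel, rates fitted after reference and blank subtraction to derive Kd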
T1 construct: also called hBTLA; monomeric BTLA
T1 sequence (Q7Z6A9 31-151): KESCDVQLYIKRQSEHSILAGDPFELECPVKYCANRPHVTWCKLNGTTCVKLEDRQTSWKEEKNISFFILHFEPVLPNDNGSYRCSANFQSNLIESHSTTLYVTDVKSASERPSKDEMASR
Catalogue of kon values
Only the number, expressed in M⁻¹ s⁻¹, is required.

For this binder ( 15C6 (antibody, IgG1, V domains shown, mIgG1) VH: QVQLQQSGPELVKPGASVKISCKASGYAFSSSWMNWVKQRPGKGLEWIGRIYPGDGDTNYNGKFKGKATLTADKSSSTAYMQLSSLTSEDSAVYFCARRGYGYLAYWGQGTLVTVSA VL: DIVMTQSHKFMSTSVGDRVSITCKASQDVSTAVAWYQQKPGQSPKLLIYSASYRYTGVPDRFTGSGSGTDFTFTISSVQAEDLAVYYCQQHYSTPYTFGGGTKLEIK ), measured kon is 193000

For this binder ( 8B4 (antibody, IgG1, V domains shown, mIgG1) VH: QVQLQQSGAELARPGASVKLPCKASGYTFTSYGISWVKQRTGQGLEWIGEIYPRSGTTYYNEKFKGKATLTADKSSSTAYMELRSLTSEDSAVYFCARRISSGSGVDYWGQGTTLTVSS VL: DIQMTQTTSSLSASLGDRVTISCSASQGISNYLNWYQQKPDGTVKLLIYYTSSLHSGVPSRFSGSGSGTDYSLTISNLEPEDIATYYCQQYSELPWTFGGGTKLEIK ), measured kon is 538000

For this binder ( 3A9 (antibody, IgG1, V domains shown, mIgG1) VH: QVQLKQSGAELVRPGASVKLSCKASGYTFTDYYINWVKQRPGQGLEWIARIYPGSGNTYYNEKFKGKATLTAEKSSSTAYMQLSSLTSEDSAVYFCARGYGNSDYWGQGTTLTVSS VL: DILLTQSPAILSVSPGERVSFSCRASQSIGTRIHWYQQRTNGSPRLLIKYASESISGIPSRFSGSGSGTDFTLSINSVESEDIADYYCQQSNSWPYTFGGGTKLEIK ), measured kon is 406000
